Assay: AUC (0 to infinity) in rat at 3 mg/kg, po
Format: ADME, organism-based
Set-up: time infinity, dose 3 mg/kg, route oral
Conditions: plasma
MEASUREMENT_TYPE: AUC(0-inf) (ng·h/mL)

- LINE_NOTATION: "CCN(CC)c1ncc(N(C(C)C)S(C)(=O)=O)c(N[C@@H](Cc2ccc(OC(=O)N3CCCC3)cc2)C(=O)O)n1"
  EXPERIMENTAL_VALUE: 24200

###

Experiment: Plasma concentration in rat at 10 mg/kg, po after 24 hrs
Assay type: ADME, organism-based
Set-up: dose 10 mg/kg, route oral
MEASUREMENT_TYPE: concentration at 24 h (ng/mL)

- LINE_NOTATION: "CCN(CC)c1ncc(N(C(C)C)S(C)(=O)=O)c(N[C@@H](Cc2ccc(OC(=O)N3CCCC3)cc2)C(=O)O)n1"
  U: "ng/mL"
  EXPERIMENTAL_VALUE: 1010

###

Experiment: Plasma concentration in rat at 10 mg/kg, po administered for 10 days measured 24 hrs post last dose
Format: ADME, organism-based
Set-up: dose 10 mg/kg, route oral

- LINE_NOTATION: "CCN(CC)c1ncc(N(C(C)C)S(C)(=O)=O)c(N[C@@H](Cc2ccc(OC(=O)N3CCCC3)cc2)C(=O)O)n1"
  concentration at 24 h / ng/mL: 3380

Entry source: ChEMBL document CHEMBL2406934
